Data provenance is paper PMC5363571.

assayed.target: USP7 (Homo sapiens)
Sequence (Q93009 whole entry): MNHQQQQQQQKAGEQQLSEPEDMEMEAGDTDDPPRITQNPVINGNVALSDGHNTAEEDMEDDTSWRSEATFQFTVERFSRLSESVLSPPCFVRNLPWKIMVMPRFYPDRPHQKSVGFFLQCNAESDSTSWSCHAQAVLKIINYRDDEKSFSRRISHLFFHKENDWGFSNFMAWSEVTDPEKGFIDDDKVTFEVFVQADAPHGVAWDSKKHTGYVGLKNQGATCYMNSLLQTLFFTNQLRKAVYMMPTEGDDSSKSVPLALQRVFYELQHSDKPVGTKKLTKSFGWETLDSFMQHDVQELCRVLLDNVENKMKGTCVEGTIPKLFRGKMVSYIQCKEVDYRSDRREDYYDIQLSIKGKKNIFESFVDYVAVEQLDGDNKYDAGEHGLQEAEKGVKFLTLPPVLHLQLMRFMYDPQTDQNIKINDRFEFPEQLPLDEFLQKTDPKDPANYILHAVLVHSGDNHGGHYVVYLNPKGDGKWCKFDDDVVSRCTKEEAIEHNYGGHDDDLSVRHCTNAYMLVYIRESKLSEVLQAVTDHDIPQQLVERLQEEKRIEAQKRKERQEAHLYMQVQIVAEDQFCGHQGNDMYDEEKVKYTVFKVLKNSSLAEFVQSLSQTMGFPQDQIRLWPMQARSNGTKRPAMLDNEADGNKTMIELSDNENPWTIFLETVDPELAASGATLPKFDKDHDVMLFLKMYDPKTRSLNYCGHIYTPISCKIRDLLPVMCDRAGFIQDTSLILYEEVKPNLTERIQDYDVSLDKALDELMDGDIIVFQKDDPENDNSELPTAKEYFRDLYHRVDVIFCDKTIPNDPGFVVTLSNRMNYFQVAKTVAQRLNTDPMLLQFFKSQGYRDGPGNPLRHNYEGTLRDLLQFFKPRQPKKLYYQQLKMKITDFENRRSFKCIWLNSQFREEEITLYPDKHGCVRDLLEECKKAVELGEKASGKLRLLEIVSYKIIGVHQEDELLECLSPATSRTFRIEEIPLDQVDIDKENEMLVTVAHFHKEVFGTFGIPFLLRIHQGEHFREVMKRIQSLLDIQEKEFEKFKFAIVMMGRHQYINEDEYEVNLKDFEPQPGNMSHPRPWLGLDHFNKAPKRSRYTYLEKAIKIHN
experiment.notes: biochemical
Design: Ub-AMC hydrolysis by recombinant USP7 (20 nM), 30 min pre-incubation, fluorescence read-out
cond: read-out: % Inhibition at 50 μM
value.kind: inhibition at 50 µM

Some compounds with recorded inhibition at 50 µM:
1) C[C@@H]1C(=O)O[C@H]2C[C@@]34[C@H]5C[C@@H](C(C)(C)C)[C@]36[C@@H](OC(=O)[C@@H]6O)O[C@@]4(C(=O)O5)[C@]21O [Ginkgolide a]; < 5%
2) NC[C@H](O)c1ccc(O)c(O)c1 [Norepinephrine-(+)-tartrate l (-)]; < 5%
3) CC(C)NCC(O)c1ccc(N)c(C#N)c1 (centres unmarked); < 5%
4) CCOC(=O)C1=C[C@]2(CC)CCCN3CCc4c(n1c1ccccc41)[C@@H]32; 38.5%
5) CCOC(=O)N1CCC(=C2c3ccc(Cl)cc3CCc3cccnc32)CC1; 20.4%

Input line: I am curious: what inhibition at 50 µM value has been reported for `C[C@H](N)[C@H](O)c1ccccc1` ?
Output line: < 5%

Input line: For the compound `CCCCCOC(=O)Nc1nc(=O)n([C@@H]2O[C@H](C)[C@@H](O)[C@H]2O)cc1F` , what inhibition at 50 µM is on record?
Output line: < 5%
